# Target Under Test: T1, biotinylated recombinant human CD70 (extracellular domain, Fc tag) (human, UniProt P32970 52-193, chemically biotinylated using 5-fold excess of Biotin)
# T1 construct: Bought from ACROBiosystems; also called bio.hCD70; Bio.CD70; not shown: C-terminal Fc Tag of the bought protein (ACROBiosystems)
# T1 sequence: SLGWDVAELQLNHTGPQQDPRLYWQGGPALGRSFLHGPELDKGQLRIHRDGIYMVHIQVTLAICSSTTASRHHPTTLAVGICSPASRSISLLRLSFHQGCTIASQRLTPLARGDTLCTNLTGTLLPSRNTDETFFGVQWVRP
# Assay Info: SPR (ProteOn XPR36), bio.CD70 immobilized on NLC chip, DARPin as analyte
The following binders are shown together with reported Kd values.

>  <Binder>
DARPin® protein #12 (designed binder) MRGSHHHHHHGSDLGKKLLQAARAGQLDEVRELLKAGADVNAKDQTGYTPLHLAARHGHLEIVEVLLKAGADVNAKDEYGWTPLHIAAFIGPLEIVEVLLKAGADVNAKDEQGATPLHLAAWQGHLEIVEVLLKAGADVNAQDKSGKTPADLAARAGHQDIAEVLQKAA

>  <Unit Of Measurement>
nM

>  <Kd>
28

$$$$
>  <Binder>
DARPin® protein #2 (designed binder, Parent of DARPin protein #24) MRGSHHHHHHGSDLGYKLLQAAYDGQLDEVRILLKAGADVNAKDSRGQTPLHYAASIGHLEIVEVLLKAGADVNAKDDHGWTPLHLAAWSGHLEIVEVLLKAGADVNAQDQEGTTPADLAAVQGHQDIAEVLQKAA

>  <Unit Of Measurement>
nM

>  <Kd>
0.45

$$$$
>  <Binder>
DARPin® protein #3 (designed binder) MRGSHHHHHHGSDLGQKLLHAAQVGQDDEVRILLAAGADVNAKDTRGITPLHDTAFYGHLEIVEVLLKAGADVNAKDVTGWTPLHLAAYTGHLEIVEVLLKAGADVNAQDNEGITPADLAAFHGHEDIAEVLQKAA

>  <Unit Of Measurement>
nM

>  <Kd>
3.1

$$$$
>  <Binder>
DARPin® protein #6 (designed binder) MRGSHHHHHHGSDLGKKLLEAARAGQDDEVRILLAAGTDVNAKDARGSTPLHVAAIHGHLEIVEVLLKAGADVNAKDTWGWTPLHLAAYAGHLEIVEVLLKAGADVNAQDEEGQTPADLAAFHGHEDIAEVLQKAA

>  <Unit Of Measurement>
nM

>  <Kd>
43

$$$$
